- System: HCT116
- Assay info: anti-tumor activity in vitro (IC50), MTT
- Format: cell-based
- Reported conditions: Homo sapiens, HCT-116, 72 h
Parameter: IC50 (nM)
Lab book: enter the figure in nM, no units written.

INPUT: Quick check: IC50 on HCT116, item `CC(C)C[C@H](NC(=O)[C@H](Cc1ccccc1)NC(=O)NCc1cccc(Cl)c1Cl)B(O)O` ?
OUTPUT: 23

---

- Test system: BGC-823, liver cancer
- Assay info: preliminary anti-tumor screening in vitro, SRB method
- Type: cell-based
- Reported conditions: Homo sapiens, 0.1 μM, read-out: inhibition rates (%) BGC-823
The threshold is inclusive: inhibition at 0.1 µM of exactly 8% counts as Met; values below receive Not met.

Examples with answers:
1) CC(C)C[C@H](NC(=O)CNC(=O)Nc1cccc(OCc2ccccc2)c1)B(O)O [Example 21] : Not met
2) CC(C)C[C@H](NC(=O)CNC(=O)Nc1cc(Cl)ccc1Cl)B(O)O [Example 22] : Not met
3) CC(C)C[C@H](NC(=O)[C@H](Cc1ccccc1)NC(=O)N[C@@H](Cc1ccccc1)C(=O)Nc1cnccn1)B(O)O [Example 24] : Met
4) COc1ccc(OC)c(CNC(=O)N[C@@H](Cc2ccccc2)C(=O)N[C@@H](CC(C)C)B(O)O)c1 [Example 18] : Met
5) CC(C)C[C@H](NC(=O)[C@H](Cc1ccccc1)NC(=O)[C@H](Cc1ccccc1)NC(=O)Nc1cccc(OCc2ccccc2)c1)B(O)O [Example 23] : Met

Now turn to the next compound.
INPUT: Please indicate if the recorded inhibition at 0.1 µM for COc1ccc(OC)c(CNC(=O)N[C@@H](Cc2ccccc2)C(=O)N[C@@H](CC(C)C)B2OC3CC4CC(C4(C)C)[C@]3(C)O2)c1 (stereo partly shown) [Example 19] meets or exceeds 8%.
OUTPUT: Met

---

Overview of reported inhibition at 20 µM across a group of compounds:
- Target entity: 20S proteasome extracted from rat liver (CT-L) (Rattus norvegicus, UniProt P18421+P28075)
- Construct: 20S proteasome extracted from rat liver; from tissue; host or cells: rat liver
- Assay info: inhibition of 20S proteasome, CT-L activity (fluorescent peptide)
- Assay type: biochemical
- Reported conditions: 20 μM; rat liver 20S proteasome, 37° C., 1 h; read-out: inhibition rates (%) CT-L
Lab book: enter the figure in %, no units written.

See these solved cases before continuing.
1. COc1ccc(NC(=O)[C@H](Cc2ccccc2)NC(=O)N[C@@H](CC(C)C)B2OC3C[C@H]4C[C@H](C4(C)C)[C@@]3(C)O2)cc1 (some centres unmarked) : 76.8
2. CC(C)C[C@H](NC(=O)N[C@@H](CC(C)C)C(=O)N[C@@H](CC(C)C)C(=O)Nc1cnccn1)B(O)O : 92.5
3. CC(C)C[C@H](NC(=O)[C@H](Cc1ccccc1)NC(=O)[C@H](Cc1ccccc1)NC(=O)Nc1cccc(OCc2ccccc2)c1)B(O)O : 94.2
4. CC(C)C[C@H](NC(=O)N[C@@H](Cc1ccccc1)C(=O)NCC1CCCO1)B(O)O (some centres unmarked) : 68.6
5. CC(C)C[C@H](NC(=O)[C@H](Cc1ccccc1)NC(=O)NCc1cccc(Cl)c1Cl)B(O)O : 97
6. CC(C)C[C@H](NC(=O)N[C@@H](Cc1ccccc1)C(=O)Nc1cccc(OCc2ccccc2)c1)B(O)O : 77.7
7. CC(C)C[C@H](NC(=O)N[C@H](Cc1ccccc1)C(=O)Nc1cnccn1)B(O)O : 89
8. COc1ccc(CNC(=O)N[C@@H](Cc2ccccc2)C(=O)N[C@@H](CC(C)C)B(O)O)cc1 : 98.3

INPUT: I am curious: what inhibition at 20 µM value has been reported for `CC(C)C[C@H](NC(=O)[C@H](Cc1ccccc1)NC(=O)NCc1ccccc1)B(O)O` ?
OUTPUT: 98.9

INPUT: I am curious: what inhibition at 20 µM value has been reported for `COc1ccc(CNC(=O)[C@H](Cc2ccccc2)NC(=O)N[C@@H](CC(C)C)B(O)O)cc1` ?
OUTPUT: 93.6

---

- System: A549, human lung cancer
- Assay info: preliminary anti-tumor screening in vitro, SRB method
- Type: cell-based
- Reported conditions: 10 μM, read-out: inhibition rates (%) A549
- Description: The test methods used in this test example are routine methods for anti-tumor activities test in pharmaceutical area, for example, referring to the following reference: (J. Immunol Method, 1983, 65, 55). […] Inhibition rates of the compounds were measured under concentrations of 0.1 μM, 1 μM or 10 μM.
Parameter: inhibition at 10 µM (%)
Lab book: enter the figure in %, no units written.

See these solved cases before continuing.
1. COc1ccc(NC(=O)[C@H](Cc2ccccc2)NC(=O)N[C@@H](CC(C)C)B2OC3C[C@H]4C[C@H](C4(C)C)[C@@]3(C)O2)cc1 (stereo partly shown) [Example 9] : 36.2
2. CC(C)C[C@H](NC(=O)N[C@@H](Cc1ccccc1)C(=O)NCC1CCCO1)B(O)O (stereo partly shown) [Example 3] : 14.9
3. COc1ccc(NC(=O)[C@H](Cc2ccccc2)NC(=O)N[C@@H](CC(C)C)B(O)O)cc1 [Example 8] : 39.2
4. CC(C)C[C@H](NC(=O)[C@H](Cc1ccccc1)NC(=O)Nc1cnccn1)B(O)O [Example 17] : 66
5. CC(C)C[C@H](NC(=O)CNC(=O)Nc1cc(Cl)ccc1Cl)B(O)O [Example 22] : 65.6

INPUT: I am curious: what inhibition at 10 µM value has been reported for CC(C)C[C@H](NC(=O)[C@H](Cc1ccccc1)NC(=O)[C@H](Cc1ccccc1)NC(=O)Nc1cccc(OCc2ccccc2)c1)B(O)O [Example 23] ?
OUTPUT: 81.3

INPUT: I am curious: what inhibition at 10 µM value has been reported for CC(C)C[C@H](NC(=O)N[C@@H](Cc1ccccc1)C(=O)Nc1cccc(OCc2ccccc2)c1)B1OC2C[C@H]3C[C@H](C3(C)C)[C@@]2(C)O1 (stereo partly shown) [Example 5] ?
OUTPUT: 30.3

---

Overview of reported inhibition at 2 µM across a group of compounds:
- Target entity: 20S proteasome extracted from rat liver (PGPH) (Rattus norvegicus, UniProt P28073+Q9JHW0)
- Construct: 20S proteasome extracted from rat liver; from tissue; host or cells: rat liver
- Assay info: inhibition of 20S proteasome, PGPH activity (fluorescent peptide)
- Type: biochemical
- Reported conditions: 2 μM; rat liver 20S proteasome, 37° C., 1 h; read-out: inhibition rates (%) PGPH
Lab book: enter the figure in %, no units written.

See these solved cases before continuing.
1) CC(C)C[C@H](NC(=O)N[C@@H](Cc1ccccc1)C(=O)NCC1CCCO1)B(O)O (stereo partly shown) : 40.8
2) CC(C)C[C@H](NC(=O)[C@H](Cc1ccccc1)NC(=O)[C@H](Cc1ccccc1)NC(=O)Nc1cccc(OCc2ccccc2)c1)B(O)O : -20.5
3) CC(C)C[C@H](NC(=O)N[C@@H](CC(C)C)C(=O)N[C@@H](CC(C)C)C(=O)Nc1cnccn1)B(O)O : 32.6

Consider the additional compound presented here.
INPUT: I am curious: what inhibition at 2 µM value has been reported for `COc1ccc(CNC(=O)N[C@@H](Cc2ccccc2)C(=O)N[C@@H](CC(C)C)B(O)O)cc1` ?
OUTPUT: 89.4

---

Overview of reported inhibition at 2 µM across a group of molecules:
- Target entity: 20S proteasome extracted from rat liver (PGPH) (Rattus norvegicus, UniProt P28073+Q9JHW0)
- Construct: 20S proteasome extracted from rat liver; from tissue; host or cells: rat liver
- Assay info: inhibition of 20S proteasome, PGPH activity (fluorescent peptide)
- Type: biochemical
- Reported conditions: 2 μM; rat liver 20S proteasome, 37° C., 1 h; read-out: inhibition rates (%) PGPH
Lab book: enter the figure in %, no units written.

1. CC(C)C[C@H](NC(=O)[C@H](Cc1ccccc1)NC(=O)NCc1cccc(Cl)c1Cl)B(O)O : -26.6
2. COc1ccc(OC)c(CNC(=O)N[C@@H](Cc2ccccc2)C(=O)N[C@@H](CC(C)C)B(O)O)c1 : 68.8
3. COc1ccc(OC)c(CNC(=O)N[C@@H](Cc2ccccc2)C(=O)N[C@@H](CC(C)C)B2OC3CC4CC(C4(C)C)[C@]3(C)O2)c1 (stereo partly shown) : 82.3

Consider the additional molecule presented here.
INPUT: Quick check: inhibition at 2 µM on 20S proteasome extracted from rat liver (PGPH) (Rattus norvegicus, UniProt P28073+Q9JHW0), item `CC(C)C[C@H](NC(=O)[C@H](Cc1ccccc1)NC(=O)Nc1cccc(OCc2ccccc2)c1)B(O)O` ?
OUTPUT: -2.93

---

Overview of reported inhibition at 0.1 µM across a group of compounds:
- System: BGC-823, liver cancer
- Assay info: preliminary anti-tumor screening in vitro, SRB method
- Format: cell-based
- Reported conditions: Homo sapiens, 0.1 μM, read-out: inhibition rates (%) BGC-823
Lab book: enter the figure in %, no units written.

See these solved cases before continuing.
1. CC(C)C[C@H](NC(=O)N[C@@H](Cc1ccccc1)C(=O)Nc1cccc(OCc2ccccc2)c1)B1OC2C[C@H]3C[C@H](C3(C)C)[C@@]2(C)O1 (stereo partly drawn) [Example 5] : 5.47
2. CC(C)C[C@H](NC(=O)N[C@@H](CC(C)C)C(=O)N[C@@H](CC(C)C)C(=O)Nc1cnccn1)B(O)O [Example 11] : 6.32

Consider the additional compound presented here.
INPUT: I am curious: what inhibition at 0.1 µM value has been reported for COc1ccc(NC(=O)[C@H](Cc2ccccc2)NC(=O)N[C@@H](CC(C)C)B2OC3C[C@H]4C[C@H](C4(C)C)[C@@]3(C)O2)cc1 (stereo partly drawn) [Example 9] ?
OUTPUT: 8.33
